Documented pIC50 across a set of binders
- testedTarget: T1, HLA-DP4 molecule DP401 (DPA1*0103/DPB1*0401) (human), P20036
- T1 chain 1: not shown
- T1 chain 2: not shown
- T1 sequence (P20036 29-222 limits assumed, chain 1 of 4, other chains not shown): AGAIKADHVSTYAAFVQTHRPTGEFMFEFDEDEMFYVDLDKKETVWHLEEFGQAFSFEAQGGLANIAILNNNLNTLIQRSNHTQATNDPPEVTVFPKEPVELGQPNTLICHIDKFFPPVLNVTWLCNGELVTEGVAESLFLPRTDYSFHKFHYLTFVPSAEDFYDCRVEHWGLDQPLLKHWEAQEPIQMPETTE
- T1 sequence (P04440 30-225 limits assumed, chain 2 of 4, other chains not shown, further chain): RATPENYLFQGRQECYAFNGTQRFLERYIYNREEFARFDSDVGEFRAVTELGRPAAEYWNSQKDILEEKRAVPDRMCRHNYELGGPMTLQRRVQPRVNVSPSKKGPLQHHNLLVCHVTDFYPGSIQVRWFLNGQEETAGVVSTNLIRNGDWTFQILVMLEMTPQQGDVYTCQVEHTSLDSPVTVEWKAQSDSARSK
- methodDescription: competition ELISA, tracer bUNK1
pIC50: −log10 of the molar value.
observable: pIC50

                                     binder  observable  recordedvalue
0  TISSYFVGKMYFNLIDTK (modifications not checked) [Api m1 77-94]       pIC50           6.35
1  AATQFEPLAARL (modifications not checked) [UNK 6-17]       pIC50           4.82
2  LLEFYLAMPFATPMEAELARRSLAQ (modifications not checked) [NY-ESO1 87-111]       pIC50           6.74
3  RNGYRALMDKSLHVGTQCALTRR (modifications not checked) [MART1 51-73]       pIC50           5.10
